Hello, the source for this data is patent US9796711B2, in case you need it.

target: ΔF508-CFTR (Homo sapiens, UniProt P13569, DEL508-508); construct: host or cells: CFBE41o-, doxycycline-inducible; assay: CFTR cell surface levels using HRP-tagged ΔF508-CFTR expressing CFBE cells, in the presence of a co-corrector; type: cell-based; conditions: HRP-tagged ΔF508-CFTR expressing CFBE cells, in the presence of 3 μM co-corrector
Sequence (P13569 with tags, fused parts or gaps DEL508-508): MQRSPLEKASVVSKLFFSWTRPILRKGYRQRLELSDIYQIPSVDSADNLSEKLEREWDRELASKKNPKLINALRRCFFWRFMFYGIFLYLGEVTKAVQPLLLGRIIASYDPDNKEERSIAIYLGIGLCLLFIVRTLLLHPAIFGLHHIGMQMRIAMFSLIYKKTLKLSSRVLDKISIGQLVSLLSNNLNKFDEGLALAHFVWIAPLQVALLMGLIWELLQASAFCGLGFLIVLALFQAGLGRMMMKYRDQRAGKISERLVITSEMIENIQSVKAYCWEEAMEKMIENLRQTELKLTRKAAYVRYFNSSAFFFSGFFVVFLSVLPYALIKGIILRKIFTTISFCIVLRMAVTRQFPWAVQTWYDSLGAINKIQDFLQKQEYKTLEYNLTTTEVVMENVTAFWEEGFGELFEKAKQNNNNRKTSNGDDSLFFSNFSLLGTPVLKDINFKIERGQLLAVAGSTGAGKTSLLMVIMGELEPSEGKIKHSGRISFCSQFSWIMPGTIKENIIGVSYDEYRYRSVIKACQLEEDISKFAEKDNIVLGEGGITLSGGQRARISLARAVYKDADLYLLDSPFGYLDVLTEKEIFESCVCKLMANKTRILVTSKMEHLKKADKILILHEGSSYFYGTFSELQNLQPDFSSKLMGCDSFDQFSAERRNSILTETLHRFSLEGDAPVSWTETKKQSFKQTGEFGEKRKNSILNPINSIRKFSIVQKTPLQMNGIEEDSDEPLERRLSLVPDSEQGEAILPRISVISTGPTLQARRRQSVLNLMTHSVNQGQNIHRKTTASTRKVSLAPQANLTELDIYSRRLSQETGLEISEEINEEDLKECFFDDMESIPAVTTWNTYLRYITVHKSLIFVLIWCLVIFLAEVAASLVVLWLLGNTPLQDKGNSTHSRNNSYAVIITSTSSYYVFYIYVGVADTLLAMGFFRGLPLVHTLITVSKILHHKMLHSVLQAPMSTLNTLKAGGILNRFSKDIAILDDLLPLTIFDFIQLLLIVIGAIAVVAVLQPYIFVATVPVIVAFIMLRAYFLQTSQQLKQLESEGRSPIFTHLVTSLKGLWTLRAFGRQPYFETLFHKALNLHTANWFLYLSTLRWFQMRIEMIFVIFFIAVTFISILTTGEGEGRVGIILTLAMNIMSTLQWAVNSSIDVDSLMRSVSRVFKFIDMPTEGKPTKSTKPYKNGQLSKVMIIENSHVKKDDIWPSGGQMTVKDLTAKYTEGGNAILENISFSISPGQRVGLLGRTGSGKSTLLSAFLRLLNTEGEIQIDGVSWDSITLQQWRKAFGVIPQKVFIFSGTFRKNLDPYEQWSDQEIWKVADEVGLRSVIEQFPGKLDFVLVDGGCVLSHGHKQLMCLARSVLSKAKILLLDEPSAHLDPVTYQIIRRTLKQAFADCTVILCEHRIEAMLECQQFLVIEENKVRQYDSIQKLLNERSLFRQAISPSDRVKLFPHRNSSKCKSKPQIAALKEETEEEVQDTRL
criterion met if % Activation is below 400%. criterion not met if not; exact matches included in criterion not met.

COCCN(CCOC)c1ccc(-c2cc(C(=O)O)nc3c2c(C(C)C)nn3-c2ccnc(N3CCOCC3)c2)cn1 [compound 524] | criterion met
CC(=O)N1CC(Oc2nn(-c3ccccc3)c3nc(C(=O)O)cc(-c4ccc(N5CCOCC5)cc4)c23)C1 [compound 497] | criterion met
O=C(O)c1cc(N2CC(N3CCCCC3)C2)c2c(C3CCC3)nn(-c3ccccc3)c2n1 [compound 466] | criterion met
Cc1cccc(-n2nc(C3CCC3)c3c(N4CCC(N5CCOCC5)CC4)cc(C(=O)O)nc32)c1 [compound 820] | criterion not met
CC(C)c1nn(C2CCCC2)c2nc(C(=O)O)cc(-c3ccc(N(C)C)nc3)c12 [compound 83] | criterion met

**Query** Identify whether the compound CN(CC1CCOCC1)c1cc(C(=O)O)nc2c1c(C1CCC1)nn2-c1ccccc1 [compound 554] records % Activation below 400%.
**Result** criterion met

**Query** Hi there! Is % Activation for COCCOCC1(F)CCN(c2cc(C(=O)O)nc3c2c(C2CCC2)nn3-c2ccccc2)C1 (stereo not shown) [compound 532] below 400%, do you know?
**Result** criterion met

**Query** Check if % Activation falls below 400% for CC(=O)Nc1ccc(-c2cc(C(=O)O)nc3c2c(C(C)C)nn3C2CCCCC2)cc1 [compound 171] .
**Result** criterion not met

**Query** Lab log: compare recorded % Activation with 400%; is it strictly lower for CC(C)c1nn(-c2cccc(C(F)(F)F)c2)c2nc(C(=O)O)cc(-c3ccc(N4CCC(C#N)CC4)nc3)c12 [compound 260] ?
**Result** criterion not met

**Query** Given the entry CC1(COc2cc(C(=O)O)nc3c2c(C2CCC2)nn3-c2ccccc2)CC(F)(F)C1 [compound 476] , would its reported % Activation be below 400%?
**Result** criterion met

**Query** Hello, is % Activation of the following compound strictly smaller than 400%? CC1(CO)CN(c2cc(C(=O)O)nc3c2c(C2CCC2)nn3-c2ccccc2)C1 [compound 511]
**Result** criterion met

**Query** Is the reported % Activation for O=C(O)c1cc(-c2ccc(CN3CCOCC3)cc2)c2c(OC3CCC3)nn(C3CCCCC3)c2n1 [compound 808] strictly below 400%?
**Result** criterion met

**Query** Strictly below 400% in % Activation? CC(=O)NC1CCN(c2cc(C(=O)O)nc3c2c(C)nn3-c2ccccc2)CC1 [compound 292]
**Result** criterion met

**Query** Record O=C(O)c1cc(N2CC(F)(F)C[C@H]2CO)c2c(C3CCC3)nn(-c3ccccc3)c2n1 [compound 538] : is its % Activation strictly below 400%?
**Result** criterion met

**Query** Hi there! Is % Activation for CC(C)c1nn(C2CCCCC2)c2nc(C(=O)O)cc(-c3cnc(N(C)C4CCOCC4)nc3)c12 [compound 236] below 400%, do you know?
**Result** criterion not met

**Query** Hello, I'm reviewing records and need to know if % Activation of CC(C)c1nn(-c2ccc(F)cc2)c2nc(C(=O)O)cc(N3CCC(C(=O)N4CCN(C)CC4)CC3)c12 [compound 755] is below 400%. Could you check?
**Result** criterion met

**Query** Please let me know if CC(C)c1nn(C2CCCC2)c2nc(C(=O)O)cc(-c3ccc(N4CCOCC4)cc3)c12 [compound 69] shows % Activation below 400%.
**Result** criterion met
